tested on: Trypanosoma cruzi; experiment: In vitro antiparasitic activity was determined against Trypanosoma cruzi; assay type: functional, organism-based
pIC50: −log10 of the molar value.
Assignment: determine reported pIC50 for the given molecules.

Value sought: pIC50, system Trypanosoma cruzi, item "CC1(C)O[C@H](COP(=O)(O)O)[C@H](C(N)=O)O1" . Result: 3.88

Value sought: pIC50, system Trypanosoma cruzi, item O=C(NO)[C@H](OC1CCCO1)[C@@H](CCO)OC1CCCO1 (stereo partly drawn) . Result: < 3.55

Value sought: pIC50, system Trypanosoma cruzi, item O=C1OC[C@@H](OC2CCCO2)[C@H]1OC1CCCO1 (stereo partly drawn) . Result: < 3.50

Value sought: pIC50, system Trypanosoma cruzi, item "CC1(C)O[C@H](COP(=O)(O)O)[C@H](C(=O)NO)O1" . Result: < 3.48

Value sought: pIC50, system Trypanosoma cruzi, item "O=C(NO)[C@H](O)[C@H](O)CO" . Result: 3.54

Value sought: pIC50, system Trypanosoma cruzi, item "O=C(CSC[C@H](O)COP(=O)(OCc1ccccc1)OCc1ccccc1)OCc1ccccc1" . Result: 3.91

Value sought: pIC50, system Trypanosoma cruzi, item "O=C(CSC[C@H](O)CO)OCc1ccccc1" . Result: 3.67

Value sought: pIC50, system Trypanosoma cruzi, item "O=C(NO)[C@H](O)[C@H](O)COP(=O)(O)O" . Result: < 3.41

Value sought: pIC50, system Trypanosoma cruzi, item CC(=O)O[C@H](COP(=O)(OCc1ccccc1)OCc1ccccc1)C[S+]([O-])CC(=O)OCc1ccccc1 (stereo partly drawn) . Result: < 3.80

Value sought: pIC50, system Trypanosoma cruzi, item "CC1(C)O[C@@H]2COC(=O)[C@@H]2O1" . Result: < 3.24

Value sought: pIC50, system Trypanosoma cruzi, item "CC1(C)OC[C@H](CSCC(=O)OCc2ccccc2)O1" . Result: 3.67

Value sought: pIC50, system Trypanosoma cruzi, item "CC1(C)O[C@H](COP(=O)(OCc2ccccc2)OCc2ccccc2)[C@H](C(=O)NOCc2ccccc2)O1" . Result: < 3.78

Value sought: pIC50, system Trypanosoma cruzi, item "CC(=O)O[C@H](COP(=O)(OCc1ccccc1)OCc1ccccc1)[C@@H](OC(C)=O)C(=O)NOCc1ccccc1" . Result: < 3.81

Value sought: pIC50, system Trypanosoma cruzi, item CC(=O)O[C@H](COP(=O)(O)O)C[S+]([O-])CC(=O)O (stereo partly drawn) . Result: < 3.53

Value sought: pIC50, system Trypanosoma cruzi, item O=C(O)C[S+]([O-])C[C@H](O)COP(=O)(O)O (stereo partly drawn) . Result: < 3.46

Value sought: pIC50, system Trypanosoma cruzi, item "O=C(NOCc1ccccc1)[C@H](O)[C@H](O)COP(=O)(OCc1ccccc1)OCc1ccccc1" . Result: < 3.75

Value sought: pIC50, system Trypanosoma cruzi, item "CC(=O)O[C@H](COP(=O)(O)O)[C@@H](OC(C)=O)C(=O)NO" . Result: < 3.55

Value sought: pIC50, system Trypanosoma cruzi, item O=C(C[S+]([O-])C[C@@H](COP(=O)(OCc1ccccc1)OCc1ccccc1)OC1CCCO1)OCc1ccccc1 (stereo partly drawn) . Result: 4.09
